Assay: Volume of distribution at steady state in CD-1 mouse at 2 mg/kg, iv
Format: ADME, organism-based
Design: dose 2 mg/kg, route intravenous
Conditions: in vivo, read-out: Vdss
value kind: Vd

Recorded Vd (molecule "Cc1c2c(n3c1CCCN1CCC[C@@H]1CNc1cc-3ccc1C(N)=O)CC(C)(C)CC2=O" ): 5.3 L/kg

----------
Task for the reader: assign each of the following compounds its reported inhibition at 3 µM.
Target: CYP3A4 (Homo sapiens, UniProt P08684)
Sequence (P08684 whole entry): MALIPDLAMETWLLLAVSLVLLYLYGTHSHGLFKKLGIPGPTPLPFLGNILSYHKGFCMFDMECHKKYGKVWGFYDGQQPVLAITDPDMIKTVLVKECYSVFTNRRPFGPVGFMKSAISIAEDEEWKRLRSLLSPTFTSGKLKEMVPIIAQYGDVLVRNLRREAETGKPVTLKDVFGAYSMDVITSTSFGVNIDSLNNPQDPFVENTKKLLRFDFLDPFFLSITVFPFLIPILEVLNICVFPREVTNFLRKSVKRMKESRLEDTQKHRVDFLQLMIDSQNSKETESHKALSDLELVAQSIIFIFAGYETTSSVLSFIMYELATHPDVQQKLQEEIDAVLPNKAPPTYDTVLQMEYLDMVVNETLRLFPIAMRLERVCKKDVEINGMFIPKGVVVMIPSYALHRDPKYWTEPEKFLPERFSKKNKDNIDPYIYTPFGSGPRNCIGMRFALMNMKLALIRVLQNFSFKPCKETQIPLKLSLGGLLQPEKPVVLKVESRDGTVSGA
Experiment: Inhibition of CYP3A4 at 3 uM
Type: ADME
Give bare numbers, in %.

Worked set:
query_smiles=Cc1c2c(n3c1CCCCN1CCC[C@@H]1CNc1cc-3ccc1C(N)=O)CC(C)(C)CC2=O value_measured=67
query_smiles=Cc1c2c(n3c1CCCN1CC[C@@H](C1)Nc1cc-3ccc1C(N)=O)CC(C)(C)CC2=O value_measured=70
query_smiles=Cc1c2c(n3c1CCCN1CCNC[C@H]1CNc1cc-3ccc1C(N)=O)CC(C)(C)CC2=O value_measured=1
query_smiles=Cc1c2c(n3c1CCCN1CC[C@H](CNc4cc-3ccc4C(N)=O)C1)CC(C)(C)CC2=O value_measured=53
query_smiles=Cc1c2c(n3c1CCCN1C[C@@H](N4CCCC4)C[C@@H]1CNc1cc-3ccc1C(N)=O)CC(C)(C)CC2=O value_measured=34

# return inhibition at 3 µM for each item in the list
1. Cc1c2c(n3c1CCCN1CCOC[C@@H]1CNc1cc-3ccc1C(N)=O)CC(C)(C)CC2=O
2. Cc1c2c(n3c1CCCN1CCCC[C@@H]1CNc1cc-3ccc1C(N)=O)CC(C)(C)CC2=O
3. Cc1c2c(n3c1CCCN1C[C@H](O)C[C@@H]1CNc1cc-3ccc1C(N)=O)CC(C)(C)CC2=O
4. Cc1c2c(n3c1CCCN1C[C@@H](F)C[C@@H]1CNc1cc-3ccc1C(N)=O)CC(C)(C)CC2=O
5. Cc1c2c(n3c1CCCN1CCC[C@@H](C1)Nc1cc-3ccc1C(N)=O)CC(C)(C)CC2=O
6. Cc1c2c(n3c1CCCN1CCCC[C@@H]1[C@H](C)Nc1cc-3ccc1C(N)=O)CC(C)(C)CC2=O

1: 71; 2: 77; 3: 64; 4: 77; 5: 76; 6: 55

# return inhibition at 3 µM for each item in the list
1. Cc1c2c(n3c1CCN1CCC[C@@H]1CNc1cc-3ccc1C(N)=O)CC(C)(C)CC2=O
2. CC(=O)N1CCN2CCCc3c(C)c4c(n3-c3ccc(C(N)=O)c(c3)NC[C@H]2C1)CC(C)(C)CC4=O
3. Cc1c2c(n3c1CCCNC(=O)[C@H](C)Nc1cc-3ccc1C(N)=O)CC(C)(C)CC2=O

[32, 34, 6]

----------
Assay: Half life in mouse liver microsomes
Assay type: ADME, Microsome
value kind: half-life

# return half-life for each item in the list
1. Cc1c2c(n3c1CCCNC(=O)[C@H](C)Nc1cc-3ccc1C(N)=O)CC(C)(C)CC2=O
2. Cc1c2c(n3c1CCCN1CCNC[C@H]1CNc1cc-3ccc1C(N)=O)CC(C)(C)CC2=O
3. Cc1c2c(n3c1CCCN1C[C@H](O)C[C@@H]1CNc1cc-3ccc1C(N)=O)CC(C)(C)CC2=O

1. > 30 min
2. > 30 min
3. 7 min

----------
Experiment: Half life in CD-1 mouse at 2 mg/kg, iv
Type: ADME, organism-based
Design: dose 2 mg/kg, route intravenous
Settings: in vivo
value kind: half-life (h)
Numbers only, in h.

Recorded half-life (compound "Cc1c2c(n3c1CCCN1CCC[C@@H]1CNc1cc-3ccc1C(N)=O)CC(C)(C)CC2=O" ): 4.6

----------
Task for the reader: assign each of the following compounds its reported half-life.
Test: Half life in rat liver microsomes
Type: ADME, Microsome
Answers are plain numbers, in min.

# return half-life for each item in the list
1. Cc1c2c(n3c1CCCN1C[C@@H](F)C[C@@H]1CNc1cc-3ccc1C(N)=O)CC(C)(C)CC2=O
2. Cc1c2c(n3c1CCCN1CCOC[C@@H]1CNc1cc-3ccc1C(N)=O)CC(C)(C)CC2=O
3. Cc1c2c(n3c1CCN1CCC[C@@H]1CNc1cc-3ccc1C(N)=O)CC(C)(C)CC2=O

1: 2; 2: 3; 3: 6

----------
Assay: Half life in rat liver microsomes
Type: ADME, Microsome
value kind: half-life (min)
Answers are plain numbers, in min.

query_smiles=Cc1c2c(n3c1CCCN1C[C@@H](N4CCCC4)C[C@@H]1CNc1cc-3ccc1C(N)=O)CC(C)(C)CC2=O value_measured=5
query_smiles=Cc1c2c(n3c1CCCN1CC[C@@H](C1)Nc1cc-3ccc1C(N)=O)CC(C)(C)CC2=O value_measured=5
query_smiles=Cc1c2c(n3c1CCCN1CC[C@H](CNc4cc-3ccc4C(N)=O)C1)CC(C)(C)CC2=O value_measured=21
query_smiles=Cc1c2c(n3c1CCCN1C[C@H](O)C[C@@H]1CNc1cc-3ccc1C(N)=O)CC(C)(C)CC2=O value_measured=10
query_smiles=Cc1c2c(n3c1CCCN1CCC[C@@H](C1)Nc1cc-3ccc1C(N)=O)CC(C)(C)CC2=O value_measured=8
query_smiles=Cc1c2c(n3c1CCCN1CCCC[C@@H]1[C@H](C)Nc1cc-3ccc1C(N)=O)CC(C)(C)CC2=O value_measured=7

# return half-life for each item in the list
1. Cc1c2c(n3c1CCCN1CCCC[C@@H]1CNc1cc-3ccc1C(N)=O)CC(C)(C)CC2=O
2. CC(=O)N1CCN2CCCc3c(C)c4c(n3-c3ccc(C(N)=O)c(c3)NC[C@H]2C1)CC(C)(C)CC4=O
3. Cc1c2c(n3c1CCCCN1CCC[C@@H]1CNc1cc-3ccc1C(N)=O)CC(C)(C)CC2=O

1: 3; 2: 3; 3: 8

Recorded half-life (molecule "Cc1c2c(n3c1CCCN1CCC[C@@H]1CNc1cc-3ccc1C(N)=O)CC(C)(C)CC2=O" ): 6

----------
Assay: Half life in human liver microsomes
Assay type: ADME, Microsome
value kind: half-life

Worked set:
query_smiles=Cc1c2c(n3c1CCCCN1CCC[C@@H]1CNc1cc-3ccc1C(N)=O)CC(C)(C)CC2=O value_kind=half-life value_measured="5 min"
query_smiles=Cc1c2c(n3c1CCCN1CCNC[C@H]1CNc1cc-3ccc1C(N)=O)CC(C)(C)CC2=O value_kind=half-life value_measured="> 30 min"
query_smiles=Cc1c2c(n3c1CCCN1CCC[C@@H](C1)Nc1cc-3ccc1C(N)=O)CC(C)(C)CC2=O value_kind=half-life value_measured="2 min"

# return half-life for each item in the list
1. Cc1c2c(n3c1CCCN1CCOC[C@@H]1CNc1cc-3ccc1C(N)=O)CC(C)(C)CC2=O
2. Cc1c2c(n3c1CCCN1CCCC[C@@H]1[C@H](C)Nc1cc-3ccc1C(N)=O)CC(C)(C)CC2=O

1. 3 min
2. 3 min

# return half-life for each item in the list
1. Cc1c2c(n3c1CCCN1C[C@@H](F)C[C@@H]1CNc1cc-3ccc1C(N)=O)CC(C)(C)CC2=O
2. Cc1c2c(n3c1CCCN1CCCC[C@@H]1CNc1cc-3ccc1C(N)=O)CC(C)(C)CC2=O
3. Cc1c2c(n3c1CCCNC(=O)[C@H](C)Nc1cc-3ccc1C(N)=O)CC(C)(C)CC2=O

4 min
8 min
4 min

----------
Assay: Half life in human liver microsomes
Assay type: ADME, Microsome
value kind: half-life (min)
Give bare numbers, in min.

Worked set:
query_smiles=Cc1c2c(n3c1CCCN1C[C@H](O)C[C@@H]1CNc1cc-3ccc1C(N)=O)CC(C)(C)CC2=O value_kind=half-life value_measured=3
query_smiles=Cc1c2c(n3c1CCCN1CC[C@H](CNc4cc-3ccc4C(N)=O)C1)CC(C)(C)CC2=O value_kind=half-life value_measured=23

Recorded half-life (compound "CC(=O)N1CCN2CCCc3c(C)c4c(n3-c3ccc(C(N)=O)c(c3)NC[C@H]2C1)CC(C)(C)CC4=O" ): 14

----------
The reader will find pIC50 measurements below, all made with Heat shock protein HSP 90-alpha (Homo sapiens, UniProt P07900).
Give bare numbers, as −log10 of the molar value.

Worked set:
query_smiles=Cc1c2c(n3c1CCC(=O)N1CCC[C@@H]1CNc1cc-3ccc1C(N)=O)CC(C)(C)CC2=O value_kind=pIC50 value_measured=6.73
query_smiles=Cc1c2c(n3c1CCN1CCC[C@@H]1CNc1cc-3ccc1C(N)=O)CC(C)(C)CC2=O value_kind=pIC50 value_measured=6.05
query_smiles=Cc1c2c(n3c1CCCN1CCCC[C@@H]1[C@H](C)Nc1cc-3ccc1C(N)=O)CC(C)(C)CC2=O value_kind=pIC50 value_measured=6.77
query_smiles=Cc1c2c(n3c1CCCNC(=O)[C@H](C)Nc1cc-3ccc1C(N)=O)CC(C)(C)CC2=O value_kind=pIC50 value_measured=7.09
query_smiles=Cc1c2c(n3c1CCCN1C[C@@H](F)C[C@@H]1CNc1cc-3ccc1C(N)=O)CC(C)(C)CC2=O value_kind=pIC50 value_measured=7.21

# return pIC50 for each item in the list
1. Cc1c2c(n3c1CCCN1CC[C@H](CNc4cc-3ccc4C(N)=O)C1)CC(C)(C)CC2=O
2. Cc1c2c(n3c1CCCCN1CCC[C@@H]1CNc1cc-3ccc1C(N)=O)CC(C)(C)CC2=O
3. Cc1c2c(n3c1CCCN1CCCC[C@@H]1CNc1cc-3ccc1C(N)=O)CC(C)(C)CC2=O
4. Cc1c2c(n3c1CCCN1CCOC[C@@H]1CNc1cc-3ccc1C(N)=O)CC(C)(C)CC2=O

[6.70, 6.52, 6.90, 7.02]
